This collection of values is drawn from PubChem BioAssay (NCI).

System: NCI-H322M lung
Assay: NCI-60 one-dose screen, 48 h
Conditions: 10 µM unless noted
Method: Growth inhibition of the NCI-H322M human Non-Small Cell Lung tumor cell line is measured as a screen for anti-cancer activity. Cells are grown in 96 well plates and exposed to the test compound for 48 hours. Compounds are tested at a single concentration, which is 10^-5 M for most compounds. The reported endpoint is percent growth (GI% or GIPRCNT), where numbers from 0 - 100% represent growth inhibition, and numbers from -100% - 0 represent cell death. […]
About 83,000 compounds went through this panel and 20% of them were active in at least one assay; those are over-represented in the sample as a whole. Activity calls are given as the source filed them. How the source made its calls: active means growth percent below 10; inactive means the rest.
Valid outcomes are listed here; reply with one: active, inactive

Exercise: Hello, I am checking results. What call was entered for CC(=O)O[C@H]1C(=O)[C@@]2(C)[C@H]([C@H](OC(=O)c3ccccc3)[C@]3(O)C[C@H](OC(=O)[C@H](OC(=O)OCC4COC(C)(C)O4)[C@@H](NC(=O)c4ccccc4)c4ccccc4)C(C)=C1C3(C)C)[C@]1(OC(C)=O)CO[C@@H]1C[C@@H]2O (stereo partly drawn) ?
Solution: inactive

Exercise: Hello, I am checking results. What call was entered for C[S+]1C=Cc2ccccc2C1c1ccc(Cl)cc1 (stereo not drawn) ?
Solution: inactive

Exercise: Hello, I am checking results. What call was entered for O=C1OCC2=C1C(c1ccccc1)c1cc3c(cc1N2)OCO3 (stereo not drawn) ?
Solution: inactive

Exercise: Hello, I am checking results. What call was entered for "COc1ccc(NC([Se])=NC23CC4CC(CC(C4)C2)C3)cc1" ?
Solution: active

Exercise: Hello, I am checking results. What call was entered for COc1cc(NC(C)CCCNC2CN3CCC2CC3)c2ncccc2c1 (stereo not drawn) ?
Solution: inactive

Exercise: Hello, I am checking results. What call was entered for "Nc1c(F)cc(-c2nc3cc(F)ccc3[se]2)cc1Br" ?
Solution: inactive

Exercise: Hello, I am checking results. What call was entered for "O=[N+]([O-])c1cc(I)cc([N+](=O)[O-])c1" ?
Solution: inactive

Exercise: Hello, I am checking results. What call was entered for "NC(N)=N/N=C\c1c[nH]c2ccc(Br)cc12" ?
Solution: inactive
